Listed variants paired with reported aptazyme ON/OFF ratio
B1: Pistol ribozyme (parent)
chain: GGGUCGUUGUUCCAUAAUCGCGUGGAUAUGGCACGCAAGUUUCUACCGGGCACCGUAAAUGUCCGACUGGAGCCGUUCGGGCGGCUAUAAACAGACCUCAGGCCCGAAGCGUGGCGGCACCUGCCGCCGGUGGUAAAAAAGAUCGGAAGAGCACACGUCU

variants of: B1; assay: aptazyme ON/OFF ratio, guanine; higher = stronger switching; co-transcriptional cleavage with and without guanine
Just the number, please, no unit after it.

Mutant Code	Assay Result
U7A U8A G9U U10A U11C C12A C13A	1.11
U11C C12A C13G	1.43
U7C U8C G9U U10A U11C C13U	1.1
U7G U8G G9U U10C U11G C12U	1.22

Query: Query aptazyme ON/OFF ratio for U7C U8C G9C U10A C12U
Response: 1.26

Query: Query aptazyme ON/OFF ratio for U7A U8G G9U U10C U11C C12G C13G
Response: 1.11

Query: Query aptazyme ON/OFF ratio for U7G U8G G9U C12U C13A
Response: 1.23

Query: Query aptazyme ON/OFF ratio for U7G U8G G9A U10C U11A C12U C13U
Response: 1.08

Query: Query aptazyme ON/OFF ratio for U7A U8A G9A U11A C13A
Response: 1.2

Query: Query aptazyme ON/OFF ratio for U7G U8C G9A U10A U11A C12A C13A
Response: 1.21

Query: Query aptazyme ON/OFF ratio for U7C U8C U11A C13G
Response: 1.19

Query: Query aptazyme ON/OFF ratio for U7A G9U U11C C12U
Response: 1.16

Query: Query aptazyme ON/OFF ratio for U7C G9C C12A C13U
Response: 1.02

Query: Query aptazyme ON/OFF ratio for U7G U8C G9A U10G U11G C13A
Response: 1.31

Query: Query aptazyme ON/OFF ratio for U7A G9U U10C U11C
Response: 1.07

Query: Query aptazyme ON/OFF ratio for U7C U8C G9A U11A C12G C13A
Response: 1.1

Query: Query aptazyme ON/OFF ratio for U8C G9C U10A C12U C13G
Response: 1.12

Query: Query aptazyme ON/OFF ratio for U7A G9C U10A U11A C12G C13U
Response: 1.1
